Values from patent US12486228B2

The molecules listed here are annotated with their EC50.
- ASSAY SYSTEM: CB2 (Homo sapiens)
- Sequence (P34972 whole entry, species assumed): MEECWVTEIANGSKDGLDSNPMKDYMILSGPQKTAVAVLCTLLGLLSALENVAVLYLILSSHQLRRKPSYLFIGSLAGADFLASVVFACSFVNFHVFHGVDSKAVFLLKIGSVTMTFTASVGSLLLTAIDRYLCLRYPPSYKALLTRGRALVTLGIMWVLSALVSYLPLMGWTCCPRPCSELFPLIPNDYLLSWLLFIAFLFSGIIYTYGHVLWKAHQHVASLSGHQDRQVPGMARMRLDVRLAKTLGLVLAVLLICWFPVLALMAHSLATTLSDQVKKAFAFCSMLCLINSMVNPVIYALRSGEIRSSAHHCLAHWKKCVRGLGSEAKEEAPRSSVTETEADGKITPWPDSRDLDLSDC
- PROTOCOL: cell-based
- TEST SETTINGS: CB2, agonist mode; read-out: CB2 Agonist mode cAMP EC50

{"MOLECULE": "CC(=O)CC(C)C(c1ccccc1)c1cn(-c2ccccc2)c2ccccc12 (stereo not drawn)", "EC50": "> 10 µM"}
{"MOLECULE": "O=[N+]([O-])CC(c1ccccc1)c1c(-c2ccccc2)[nH]c2ccccc12 (stereo not drawn) [GAT211, reference compound]", "EC50": "> 10 µM"}
{"MOLECULE": "O=C(O)CCC(c1ccccc1)c1c[nH]c2ccccc12 (stereo not drawn)", "EC50": "> 10 µM"}

----------
- ASSAY SYSTEM: hCB1 (Homo sapiens)
- Sequence (P21554 whole entry): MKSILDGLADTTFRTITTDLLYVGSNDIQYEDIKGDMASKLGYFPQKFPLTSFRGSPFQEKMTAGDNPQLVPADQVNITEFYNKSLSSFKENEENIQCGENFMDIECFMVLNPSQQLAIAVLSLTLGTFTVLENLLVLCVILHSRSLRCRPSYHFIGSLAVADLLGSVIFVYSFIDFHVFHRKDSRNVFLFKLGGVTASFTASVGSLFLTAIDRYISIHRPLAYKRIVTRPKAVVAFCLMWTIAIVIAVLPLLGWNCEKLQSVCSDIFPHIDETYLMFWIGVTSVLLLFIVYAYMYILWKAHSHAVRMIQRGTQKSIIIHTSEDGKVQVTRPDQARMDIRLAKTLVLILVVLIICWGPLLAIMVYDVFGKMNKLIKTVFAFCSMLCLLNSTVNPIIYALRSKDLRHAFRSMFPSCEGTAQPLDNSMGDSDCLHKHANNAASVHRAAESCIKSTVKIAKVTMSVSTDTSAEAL
- PROTOCOL: cell-based
- Design: host or cells: CHO-K1
- TEST SETTINGS: read-out: CB1 PAM mode cAMP Emax, CB1, PAM mode
- Protocol: HitHunter cAMP assay: Inhibition of forskolin-stimulated cAMP was determined using the DiscoveRx HitHunter assay in hCB1R CHO-K1 cells. Cells (20,000 cells/well in low-volume 96 well plates) were incubated overnight in Opti-MEM (Invitrogen) containing 1% FBS at 37° C. and 5% CO2. […]
Field 'label' (enum: yes / no). Set to yes when Emax is strictly under 90%; else no.

{"COMPOUND": "OCC(c1ccccc1)c1cn(-c2ccccc2)c2ccccc12 (stereo not shown) [Compound 31]", "ASSAY SYSTEM": "hCB1 (Homo sapiens)", "ASSIGNED CATEGORY": "yes"}
{"COMPOUND": "O=C(O)CCC(c1ccccc1)c1c[nH]c2ccccc12 (stereo not shown) [Compound 28, 4-(1H-Pndol-3-yl)-4-phenylbutanoic acid]", "ASSAY SYSTEM": "hCB1 (Homo sapiens)", "ASSIGNED CATEGORY": "yes"}
{"COMPOUND": "CC(=O)CC(C)C(c1ccccc1)c1cn(-c2ccccc2)c2ccccc12 (stereo not shown) [Compound 41]", "ASSAY SYSTEM": "hCB1 (Homo sapiens)", "ASSIGNED CATEGORY": "yes"}
{"COMPOUND": "OCC(c1ccccc1)c1cn(-c2ccccc2)c2ccc(Cl)cc12 (stereo not shown) [Compound 35]", "ASSAY SYSTEM": "hCB1 (Homo sapiens)", "ASSIGNED CATEGORY": "yes"}
{"COMPOUND": "c1ccc(C(Cc2nnn[nH]2)c2cn(-c3ccccc3)c3ccccc23)cc1 (stereo not shown) [Compound 39]", "ASSAY SYSTEM": "hCB1 (Homo sapiens)", "ASSIGNED CATEGORY": "no"}
{"COMPOUND": "O=C(O)CCCCC(c1ccccc1)c1cn(-c2ccccc2)c2ccccc12 (stereo not shown) [Compound 20]", "ASSAY SYSTEM": "hCB1 (Homo sapiens)", "ASSIGNED CATEGORY": "no"}
{"COMPOUND": "O=C(O)CC=C(c1ccccc1)c1cn(-c2ccccc2)c2ccccc12 (mixture of isomers) [Compound 16]", "ASSAY SYSTEM": "hCB1 (Homo sapiens)", "ASSIGNED CATEGORY": "no"}

----------
pEC50 by entry:
- ASSAY SYSTEM: UniProtKB P21554
- PROTOCOL: cell-based
- Parameters: host or cells: CHO-K1
- TEST SETTINGS: CB1, PAM mode; read-out: CB1 PAM mode cAMP EC50
pEC50: −log10 of the molar value.

{"MOLECULE": "NC(=O)CC(c1ccccc1)c1cn(-c2ccccc2)c2ccccc12 (centres unmarked)", "pEC50": "< 5.00"}
{"MOLECULE": "CC(=O)CC(C)C(c1ccccc1)c1cn(-c2ccccc2)c2ccccc12 (centres unmarked) [Compound 42]", "pEC50": "< 5.00"}
{"MOLECULE": "OCC(c1ccccc1)c1cn(-c2ccccc2)c2ccccc12 (centres unmarked)", "pEC50": "< 5.00"}
{"MOLECULE": "CCOC(=O)CCC(c1ccccc1)c1cn(-c2ccccc2)c2ccccc12 (centres unmarked)", "pEC50": "< 5.00"}
{"MOLECULE": "CC(=O)CC(C)C(c1ccccc1)c1cn(-c2ccccc2)c2ccccc12 (centres unmarked) [Compound 41]", "pEC50": "< 5.00"}
{"MOLECULE": "CCOC(=O)C(C(=O)O)C(c1ccccc1)c1cn(-c2ccccc2)c2ccccc12 (centres unmarked)", "pEC50": "< 5.00"}
{"MOLECULE": "OC(c1ccccc1)c1cn(-c2ccccc2)c2ccccc12 (centres unmarked)", "pEC50": "< 5.00"}
{"MOLECULE": "OCC(c1ccccc1)c1cn(-c2ccccc2)c2ccc(Cl)cc12 (centres unmarked)", "pEC50": "< 5.00"}
{"MOLECULE": "OCCCC(c1ccccc1)c1cn(-c2ccccc2)c2ccccc12 (centres unmarked)", "pEC50": "< 5.00"}
{"MOLECULE": "OCCC(c1ccccc1)c1cn(-c2ccccc2)c2ccccc12 (centres unmarked)", "pEC50": "< 5.00"}
{"MOLECULE": "O=C(O)CCC(c1ccccc1)c1c[nH]c2ccccc12 (centres unmarked)", "pEC50": 5.36}
{"MOLECULE": "O=C(O)C(C(=O)O)C(c1ccccc1)c1cn(-c2ccccc2)c2ccccc12 (centres unmarked)", "pEC50": 5.89}
{"MOLECULE": "O=C(O)CCC(c1ccccc1)c1cn(C(=O)c2ccccc2)c2ccccc12 (centres unmarked)", "pEC50": 6.15}
{"MOLECULE": "O=C(O)/C=C\\C(c1ccccc1)c1cn(-c2ccccc2)c2ccccc12 (centres unmarked)", "pEC50": 6.19}
